The reported measurements were obtained from ChEMBL document CHEMBL5321192.

Tested on: MCF7
protocol-notes: Antiproliferative activity against human MCF7 cells assessed as cell growth inhibition incubated for 48 hrs by MTT assay
Assay type: functional, cell-based
stated-conditions: MCF7, 48 h
parameter: IC50 (µM)
Give bare numbers, in µM.

Take a look at these entries with their results.
{"smiles-text": "COc1cc2c(-n3ccnc3)nc(-c3ccc(Cl)cc3)nc2c(OC)c1OC", "study-system": "MCF7", "IC50 (µM)": 2.16}
{"smiles-text": "COc1cc2c(-n3cnnc3)nc(-c3ccc(Cl)cc3)nc2c(OC)c1OC", "study-system": "MCF7", "IC50 (µM)": 8.33}

Shifting focus to the compound that follows.
## Task # query: IC50 of entry `COc1cc(-c2nc(-n3cnnc3)c3cc(OC)c(OC)c(OC)c3n2)cc(OC)c1OC`
## Result 23.4
